experiment: Potency ratio was determined against LoVoR versus FAA (Flavone acetic acid); less potent; assay type: functional
Recorded Potency ratio values for a group of compounds are listed next.
Number only, no unit.

For orientation, consider the following solved cases.
[[record]]
query_smiles = "COc1c(-c2cccc(C)c2)oc2c(CC(=O)O)cccc2c1=O"
assay_readout = "Potency ratio"
quantitative_result = 0.6

[[record]]
query_smiles = "COc1cccc(-c2oc3c(CC(=O)O)cccc3c(=O)c2OC)c1"
assay_readout = "Potency ratio"
quantitative_result = 0.7

[[record]]
query_smiles = "COc1c(-c2ccccc2)oc2c(CC(=O)O)cccc2c1=O"
assay_readout = "Potency ratio"
quantitative_result = 0.6

[[record]]
query_smiles = "COc1c(-c2ccccc2Cl)oc2c(CC(=O)O)cccc2c1=O"
assay_readout = "Potency ratio"
quantitative_result = 0.5

[[record]]
query_smiles = "COc1ccc(-c2oc3c(CC(=O)O)cccc3c(=O)c2OC)cc1"
assay_readout = "Potency ratio"
quantitative_result = 0.7


Please turn your attention to the following entry.
Exam item: Identify measured Potency ratio associated with COc1ccccc1-c1oc2c(CC(=O)O)cccc2c(=O)c1OC
Marked response: 0.5

###

test: Potency ratio was determined against LoVoS versus FAA (Flavone acetic acid); format: functional
Rule: Potency ratio below 0.9 gives yes (1), anything at or above gives no (0).

Use the examples below as a reference point.
[[record]]
query_smiles = "COc1c(-c2ccccc2)oc2c(CC(=O)O)cccc2c1=O"
answer_label = "yes (1)"

[[record]]
query_smiles = "COc1c(-c2cccc(Cl)c2)oc2c(CC(=O)O)cccc2c1=O"
answer_label = "no (0)"


Exam item: Is 0.9 strictly greater than the molecule's reported Potency ratio? molecule: O=C(O)Cc1cccc2c(=O)cc(-c3ccccc3)oc12
Marked response: no (0)

Exam item: Just wondering, is Potency ratio of CC(C)Oc1c(-c2ccccc2)oc2c(CC(=O)O)cccc2c1=O below 0.9?
Marked response: yes (1)

###

experiment: Potency ratio was determined against C13 cell line versus FAA (Flavone acetic acid); less potent; type: functional
Assay readout: Potency ratio
Give the figure by itself; no unit, no explanation.

[[record]]
query_smiles = "COc1ccc(-c2oc3c(CC(=O)O)cccc3c(=O)c2OC)cc1"
quantitative_result = 0.4

[[record]]
query_smiles = "COc1c(-c2ccc(Cl)cc2)oc2c(CC(=O)O)cccc2c1=O"
quantitative_result = 0.7

[[record]]
query_smiles = "COc1c(-c2ccccc2C)oc2c(CC(=O)O)cccc2c1=O"
quantitative_result = 0.4

[[record]]
query_smiles = "COc1c(-c2ccc(C)cc2)oc2c(CC(=O)O)cccc2c1=O"
quantitative_result = 0.3


Field: next compound
Exam item: // fetch Potency ratio given entry COc1c(-c2ccccc2)oc2c(CC(=O)O)cccc2c1=O
Marked response: 0.3

###

tested on: C13; assay: Direct cytotoxicity against the selected tumor cell line c13* was determined especially on ovarian adenocarcinoma derived cells; format: functional, cell-based; settings: Homo sapiens
Recorded IC50, one value per entry.
Output spec: scalar in µM, unitless text.

Recorded results for 4 molecules are shown here.
[[record]]
query_smiles = "COc1c(-c2ccc(Cl)cc2)oc2c(CC(=O)O)cccc2c1=O"
assay_readout = "IC50"
quantitative_result = 350

[[record]]
query_smiles = "O=C(O)Cc1cccc2c(=O)cc(-c3ccccc3)oc12"
assay_readout = "IC50"
quantitative_result = 233

[[record]]
query_smiles = "COc1c(-c2ccccc2C)oc2c(CC(=O)O)cccc2c1=O"
assay_readout = "IC50"
quantitative_result = 524

[[record]]
query_smiles = "COc1c(-c2ccccc2)oc2c(CC(=O)O)cccc2c1=O"
assay_readout = "IC50"
quantitative_result = 757


Now look at this entry.
Exam item: Report measured IC50 on C13; entry: COc1c(-c2ccc(C)cc2)oc2c(CC(=O)O)cccc2c1=O
Marked response: 806

These data points were gathered from ChEMBL document CHEMBL1145051.
